FYI, the data here is from the RNAGym collection of RNA variant scans (doi:10.1093/molbev/msab373).

B1: Azoarcus group I ribozyme (parent)
chain: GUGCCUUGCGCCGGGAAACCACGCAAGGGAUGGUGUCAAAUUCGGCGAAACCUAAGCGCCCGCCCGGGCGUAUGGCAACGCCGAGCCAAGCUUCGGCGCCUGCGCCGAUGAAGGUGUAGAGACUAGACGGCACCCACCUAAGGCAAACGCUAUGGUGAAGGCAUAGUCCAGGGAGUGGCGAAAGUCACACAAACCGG

- Variants of: B1
- test: reverse-splicing fitness (ratio to wild type); higher = more active; in vitro selection; Mg2+ level not given
The class of a record is decided solely by its measured reverse-splicing fitness; consult low bin (below 0.007), mid bin (0.007 to below 0.02), high bin (0.02 or more)

Prompt line: Which class holds C82U A111U A120G A145U C169G ?
Response line: mid bin

Prompt line: Which class holds C82G A111C A145C C169G ?
Response line: mid bin

Prompt line: Which class holds C82G A120G A145C C150U C169G U176A ?
Response line: high bin

Prompt line: Which class holds C82U A111G A120G A145U C150A ?
Response line: mid bin

Prompt line: Which class holds C82A A111C A120U A145U C150U C169A U176G ?
Response line: low bin

Prompt line: Which class holds A120C C169U U176G ?
Response line: mid bin

Prompt line: Which class holds A120C A145U C150A C169U U176C ?
Response line: high bin

Prompt line: Which class holds A111U A120C A145U C150A C169U ?
Response line: high bin

Prompt line: Which class holds A111G A120U A145G C150A C169U U176G ?
Response line: low bin

Prompt line: Which class holds C82A A111C A120G A145G C150U C169G U176C ?
Response line: mid bin

Prompt line: Which class holds A111G A145U ?
Response line: high bin

Prompt line: Which class holds C82A A111C A145U C150G C169G ?
Response line: mid bin

Prompt line: Which class holds C82U A120C A145G C150G C169G U176C ?
Response line: mid bin

Prompt line: Which class holds C82G A111C A120C U176C ?
Response line: high bin

Prompt line: Which class holds C82G A111C A120U C150U C169A ?
Response line: low bin

Prompt line: Which class holds C82A A111G C150U U176C ?
Response line: high bin

Prompt line: Which class holds C82A A111C A120G A145C C150A C169A U176G ?
Response line: low bin

Prompt line: Which class holds A111C A120C A145G C169U U176C ?
Response line: high bin

Prompt line: Which class holds C82U A120G A145C C150G C169G U176G ?
Response line: low bin

Prompt line: Which class holds C82G A111C A145U C150U C169A U176A ?
Response line: mid bin
